method: Half life in BALB/c mouse at 5 mg/kg, po
Assay type: ADME, organism-based
condition context: in vivo
observed property: half-life
Write the quantity with the unit trailing the number.

Output measured half-life for this item: COc1ncc2cc1NS(=O)(=O)c1ccc(F)c(c1)C(=O)NCC1=CC=C(S1)c1ncnc3c1SC2=C3C 14.6 h

----------
Test system Serine/threonine-protein kinase mTOR (Homo sapiens), IC50 listed for each of the compounds.

COc1ncc(-c2sc3c(-c4ccc(CNC=O)s4)ncnc3c2C)cc1NS(=O)(=O)c1ccccc1 :: 0.0809 µM
COc1ncc2cc1NS(=O)(=O)c1cccc(c1)C(=O)NCC1=CC=C(O1)c1ncnc3c1SC2=C3 :: > 10 µM
COc1ncc2cc1NS(=O)(=O)c1ccc(Cl)c(c1)C(=O)NCC1=CC=C(S1)c1ncnc3c1SC2=C3 :: > 10 µM
COc1ncc2cc1NS(=O)(=O)c1cccc(c1)C(=O)NCc1csc(c1)-c1ncnc3c1SC2=C3 :: > 10 µM
COc1ncc2cc1NS(=O)(=O)c1cccc(c1)C(=O)NCc1cc(ccn1)-c1ncnc3c1SC2=C3 :: > 10 µM
CNC(=O)c1cccc(S(=O)(=O)Nc2cc(-c3sc4c(-c5cccs5)ncnc4c3C)cnc2OC)c1 :: 0.604 µM

Lab note: each compound below needs its IC50 filled in.
1. COc1ncc(-c2sc3c(-c4cccs4)ncnc3c2C)cc1NS(=O)(=O)c1ccccc1
2. COc1ncc2cc1NS(=O)(=O)c1cccc(c1)C(=O)NCc1cc(cs1)-c1ncnc3c1SC2=C3
3. COc1ncc2cc1NS(=O)(=O)c1cccc(c1)C(=O)NCc1nc(cs1)-c1ncnc3c1SC2=C3
4. COc1ncc2cc1NS(=O)(=O)c1cccc(c1)C(=O)NCC1=CC=C(S1)c1ncnc3c1SC2=C3

> 1 µM
> 10 µM
> 10 µM
5.7 µM

----------
method: AUClast in BALB/c mouse at 5 mg/kg, po
Type: ADME, organism-based
Set-up: route oral, time 0 - last, dose 5 mg/kg
condition context: in vivo
observed property: AUC(0-t) (ng·h/mL)
Numbers only, in ng·h/mL.

Output measured AUC(0-t) for this item: COc1ncc2cc1NS(=O)(=O)c1ccc(F)c(c1)C(=O)NCC1=CC=C(S1)c1ncnc3c1SC2=C3C 99100

----------
method: Tmax in BALB/c mouse at 10 mg/kg, po
Format: ADME, organism-based
condition context: in vivo
observed property: Tmax (min)
One number for each entry, in min.

Output measured Tmax for this item: COc1ncc2cc1NS(=O)(=O)c1cccc(c1)C(=O)NCC1=CC=C(S1)c1ncnc3c1SC2=C3C 15

----------
method: Half life in BALB/c mouse at 0.7 mg/kg, iv
Assay type: ADME, organism-based
condition context: in vivo
observed property: half-life (h)
Numbers only, in h.

Output measured half-life for this item: COc1ncc2cc1NS(=O)(=O)c1ccc(F)c(c1)C(=O)NCC1=CC=C(S1)c1ncnc3c1SC2=C3C 2.96

----------
method: Oral bioavailability in BALB/c mouse at 5 mg/kg
Format: ADME, organism-based
condition context: in vivo
observed property: bioavailability
Write the quantity with the unit trailing the number.

Output measured bioavailability for this item: COc1ncc2cc1NS(=O)(=O)c1ccc(F)c(c1)C(=O)NCC1=CC=C(S1)c1ncnc3c1SC2=C3C 124%

----------
tested target: Phosphatidylinositol 4,5-bisphosphate 3-kinase catalytic subunit alpha isoform (Homo sapiens)
Sequence (P42336 whole entry, canonical isoform): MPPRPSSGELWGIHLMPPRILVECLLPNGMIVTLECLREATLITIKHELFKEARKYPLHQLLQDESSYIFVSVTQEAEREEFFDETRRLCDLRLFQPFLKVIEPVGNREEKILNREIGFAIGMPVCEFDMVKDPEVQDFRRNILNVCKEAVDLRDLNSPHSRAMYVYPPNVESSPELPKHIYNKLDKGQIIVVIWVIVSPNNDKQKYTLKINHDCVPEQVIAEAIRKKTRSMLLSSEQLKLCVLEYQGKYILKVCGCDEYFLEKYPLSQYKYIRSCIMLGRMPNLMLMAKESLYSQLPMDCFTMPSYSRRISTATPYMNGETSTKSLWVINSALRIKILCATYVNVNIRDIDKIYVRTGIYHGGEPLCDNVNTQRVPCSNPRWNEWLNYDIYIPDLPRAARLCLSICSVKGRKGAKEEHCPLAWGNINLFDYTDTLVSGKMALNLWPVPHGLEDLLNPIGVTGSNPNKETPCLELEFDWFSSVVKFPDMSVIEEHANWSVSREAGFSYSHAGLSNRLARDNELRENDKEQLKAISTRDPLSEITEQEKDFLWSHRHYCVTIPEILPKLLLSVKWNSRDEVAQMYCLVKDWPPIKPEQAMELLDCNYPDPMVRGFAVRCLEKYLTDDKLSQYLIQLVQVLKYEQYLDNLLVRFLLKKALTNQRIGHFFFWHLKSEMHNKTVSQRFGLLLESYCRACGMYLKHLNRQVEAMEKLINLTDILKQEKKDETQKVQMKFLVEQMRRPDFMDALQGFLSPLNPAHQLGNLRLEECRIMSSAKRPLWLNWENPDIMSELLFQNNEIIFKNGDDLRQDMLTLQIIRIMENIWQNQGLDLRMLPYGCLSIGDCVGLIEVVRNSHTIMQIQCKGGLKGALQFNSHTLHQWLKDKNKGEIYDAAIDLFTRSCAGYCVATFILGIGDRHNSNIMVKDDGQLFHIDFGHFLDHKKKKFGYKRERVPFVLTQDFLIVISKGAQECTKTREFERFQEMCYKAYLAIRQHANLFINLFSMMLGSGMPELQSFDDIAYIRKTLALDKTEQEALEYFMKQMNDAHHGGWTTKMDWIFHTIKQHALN
method: Inhibition of PI3Kalpha (unknown origin) by ADP-Glo assay
observed property: log10 of IC50 (log10 of the value in nM)
On a log10 scale: recorded IC50, unit nM.

COc1ncc2cc1NS(=O)(=O)c1ccc(F)c(c1)C(=O)NCC1=CC=C(S1)c1ncnc3c1SC2=C3 :: 0.80
COc1ncc2cc1NS(=O)(=O)c1cccc(c1)C(=O)NCC1=CC=C(S1)c1ncnc3c1SC2=C3C :: -0.64
COc1ncc2cc1NS(=O)(=O)c1cccc(c1)C(=O)NCc1cc(cs1)-c1ncnc3c1SC2=C3 :: 1.14
COc1ncc(-c2sc3c(-c4ccc(CNC=O)s4)ncnc3c2C)cc1NS(=O)(=O)c1ccccc1 :: 0.52
COc1ncc2cc1NS(=O)(=O)c1cccc(c1)C(=O)NC[C@H]1CCN(C1)c1ncnc3c1SC2=C3C :: 0.50
COc1ncc2cc1NS(=O)(=O)c1cccc(c1)C(=O)NCc1csc(c1)-c1ncnc3c1SC2=C3 :: 1.46

Lab note: each compound below needs its log10 of IC50 filled in.
1. CNC(=O)c1cccc(S(=O)(=O)Nc2cc(-c3sc4c(-c5cccs5)ncnc4c3C)cnc2OC)c1
2. COc1ncc2cc1NS(=O)(=O)c1cccc(c1)C(=O)NCC1=CC=C(O1)c1ncnc3c1SC2=C3

1. 0.83
2. 2.58
